# Lookup of reported peptide exchange yield keyed by entry
target: HLA-A*24 (human); experiment: UV-exchange ELISA, exchange yield grade

peptide exchange yield reported for this binder RYHPTTCTI [… (SEQ ID NO: 249)] : > 75%

Lab note: AYVIAVHLF [… (SEQ ID NO: 116)] gave peptide exchange yield of > 75%

Entry VYMNVMTRL [… (SEQ ID NO: 260)] — recorded peptide exchange yield = > 75%

// peptide exchange yield lookup, binder = VYPFENFEF [… (SEQ ID NO: 102)] , result: 50 to 75%

Short answer for IYQYVADNF [… (SEQ ID NO: 228)] : peptide exchange yield was 50 to 75%

***
Quick note, peptide exchange yield for RYKPGEPITF [… (SEQ ID NO: 383)] landed at 50 to 75%

Noted for RFPVQGTVTF [… (SEQ ID NO: 294)] : its peptide exchange yield reads 50 to 75%

The recorded peptide exchange yield for entry EYLHNCSYF [… (SEQ ID NO: 137)] equals > 75%
